- Measurement setup: in ethanol, 308.15 K
Assay endpoint: solubility (mole fraction)
Numbers only.

The value of solubility (mole fraction) measured for the molecule O.O=c1c(O)c(-c2ccc(O)cc2)oc2cc(O)cc(O)c12 turned out to be 0.0178

---

- Measurement setup: in n-butanol, 283.15 K
Assay endpoint: solubility (mole fraction)
Numbers only.

The value of solubility (mole fraction) measured for the compound O.O=c1c(O)c(-c2ccc(O)cc2)oc2cc(O)cc(O)c12 turned out to be 0.00626

---

- Measurement setup: in isopropanol, 303.15 K
Assay endpoint: solubility (mole fraction)
Give bare numbers.

The value of solubility (mole fraction) measured for the compound O.O=c1c(O)c(-c2ccc(O)cc2)oc2cc(O)cc(O)c12 turned out to be 0.0126

Values compiled from BigSolDB 2.1.
